test system: HCV genotype 1b replicon (Huh-Luc-Neo cells); test: HCV Replicon RNA (Taqman) Assay, genotype 1b; type: cell-based; conditions: Hepatitis C virus, GETYPE1B; Huh-Luc-Neo cells, genotype 1b, HCV RNA, 72 h; read-out: HCV-1b Replicon Inhibition*, Taqman (EC50)
pEC50: −log10 of the molar value.
Would you mind telling me the reported pEC50 of each entry?

{"MOLECULE": "Cc1ccc(O)c(-c2nn(C)cc2C#Cc2ccc(NC(=O)C3CCCCN3C(=O)[C@H](CCc3ccccc3)NC(=O)OC(C)(C)C)cc2)c1 (stereo partly drawn)", "pEC50": "> 6.00"}
{"MOLECULE": "CC(C)(C)OC(=O)N[C@@H](C(=O)N1CCOCC1C(=O)Nc1ccc(C#Cc2cn(CCO)nc2-c2cc(Cl)ccc2O)cc1)c1ccccc1 (stereo partly drawn) [Compound 30A]", "pEC50": "> 6.00"}

Here is another molecule to look at.
Kindly note the recorded pEC50 for Cc1ccc(O)c(-c2nn(C)cc2C#Cc2ccc(NC(=O)C3CCCCN3C(=O)[C@H](Cc3ccco3)NC(=O)OC(C)(C)C)cc2)c1 (stereo partly drawn) [Compound 12A] , which is > 6.00

Ref: patent US7923004B2
